Tested on: AncSZ
Assay: phosphorylation enrichment, bacterial display (enrichment ratio); higher = better substrate or ligand; peptides without Tyr show the background;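 also: 11-residue human phosphosite peptides and single-mutation variants displayed on the E. coli surface, counted by deep sequencing, each peptide's frequency after selection divided by its frequency in the unselected input library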;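 also: frequency after pTyr selection over input frequency; kinase dosed for 20-30% of maximal phosphorylation in three min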
Each entry gets 0 (no) if its phosphorylation enrichment stays under 1, and 1 (yes) if its phosphorylation enrichment is 1 or above.

[[record]]
residue_sequence = "EYGFRYELVQY [UGGT2_Y1289]"
qualitative_label = "1 (yes)"

[[record]]
residue_sequence = "WDLPEYSFKDP [ITGA3_Y237_S235P_YF]"
qualitative_label = "1 (yes)"

[[record]]
residue_sequence = "REAMEYLESKQ [BTK_Y511_C506R]"
qualitative_label = "1 (yes)"

[[record]]
residue_sequence = "PTYKHYANSTQ [SLC12A3_Y70_E68K]"
qualitative_label = "0 (no)"

[[record]]
residue_sequence = "ITVPAYFNDSQ [HSPA9_Y196]"
qualitative_label = "0 (no)"

[[record]]
residue_sequence = "TCFDKYTGSTF [FN1_Y101_N104S_YF]"
qualitative_label = "0 (no)"

[[record]]
residue_sequence = "QSSEGYGLGDR [KIAA1210_Y564]"
qualitative_label = "1 (yes)"

[[record]]
residue_sequence = "SRDDYYETIAM [NPY1R_Y347_D346Y]"
qualitative_label = "1 (yes)"

[[record]]
residue_sequence = "NVADHYRVYKP [ATP6V0D2_Y271_G272R]"
qualitative_label = "0 (no)"

[[record]]
residue_sequence = "KIRDWYQRQRP [KRT14_Y151]"
qualitative_label = "0 (no)"

[[record]]
residue_sequence = "KDQGIYEDYVE [MYL6_Y86_T85I]"
qualitative_label = "1 (yes)"

[[record]]
residue_sequence = "SLESAYPEGSQ [TTF1_Y357]"
qualitative_label = "0 (no)"

[[record]]
residue_sequence = "EILDVYIFLGP [GAA_Y340_G335E]"
qualitative_label = "1 (yes)"

[[record]]
residue_sequence = "QCTSDYPEHVC [SART3_Y541]"
qualitative_label = "1 (yes)"

[[record]]
residue_sequence = "DNPAKYFILES [DPP10_Y512]"
qualitative_label = "0 (no)"

[[record]]
residue_sequence = "DEDFLYREELA [POR_Y575_YF]"
qualitative_label = "1 (yes)"

[[record]]
residue_sequence = "ATGLIYIGSHD [AASDH_Y870_T865A]"
qualitative_label = "0 (no)"

[[record]]
residue_sequence = "PPLMLYNPTTF [EGFR_Y270_YF]"
qualitative_label = "1 (yes)"

[[record]]
residue_sequence = "GDFFRSLAEVA [YWHAG_Y133_Y133S_YF]"
qualitative_label = "0 (no)"

[[record]]
residue_sequence = "KRFRIYHLATS [BRCA2_Y3009_YF]"
qualitative_label = "0 (no)"

[[record]]
residue_sequence = "NDPMEYAKQHG [ASS1_Y163_L160P]"
qualitative_label = "0 (no)"

[[record]]
residue_sequence = "DKNSSYFADWL [TUBB8_Y340]"
qualitative_label = "1 (yes)"

[[record]]
residue_sequence = "KFLENYLNRLL [PLD2_Y169_YF]"
qualitative_label = "0 (no)"

[[record]]
residue_sequence = "RELGEYGLQAF [ALDH2_Y497_YF]"
qualitative_label = "1 (yes)"

[[record]]
residue_sequence = "ATDLAYYLVCK [ASL_Y375_R379C]"
qualitative_label = "1 (yes)"

[[record]]
residue_sequence = "IRFSDYVEVAD [PHACTR1_Y525]"
qualitative_label = "1 (yes)"

[[record]]
residue_sequence = "KYLENYLNCLL [PLD2_Y169_R172C]"
qualitative_label = "1 (yes)"

[[record]]
residue_sequence = "LNPLIYTLRNA [OR4C46_Y285_K288R]"
qualitative_label = "1 (yes)"

[[record]]
residue_sequence = "KDAGDYKYKAK [LRIT3_Y326_C328Y]"
qualitative_label = "0 (no)"

[[record]]
residue_sequence = "LNPDGYEKAFE [CPXM2_Y427_YF]"
qualitative_label = "1 (yes)"

[[record]]
residue_sequence = "KLSFSYGWALQ [ALDOB_Y302_R304W]"
qualitative_label = "1 (yes)"

[[record]]
residue_sequence = "FHLLPYTVRAM [PARS2_Y93_YF]"
qualitative_label = "0 (no)"

[[record]]
residue_sequence = "QYPDVYAREEV [CRX_Y67]"
qualitative_label = "1 (yes)"

[[record]]
residue_sequence = "LEFGDCHPLKP [VPS35L_Y32_Y32C]"
qualitative_label = "1 (yes)"

[[record]]
residue_sequence = "SVSVNYGDQVQ [GRAP_Y101]"
qualitative_label = "0 (no)"

[[record]]
residue_sequence = "WFPANYVKLLS [ITSN1_Y1132]"
qualitative_label = "0 (no)"

[[record]]
residue_sequence = "RGFRQDAFDGK [HLA-A_Y140_YF]"
qualitative_label = "0 (no)"

[[record]]
residue_sequence = "KAEELYIGVTV [EFHC2_Y509]"
qualitative_label = "1 (yes)"

[[record]]
residue_sequence = "QRTMKYTTATG [MCCC1_Y41]"
qualitative_label = "0 (no)"

[[record]]
residue_sequence = "YLGEEYVKAVG [TF_Y674]"
qualitative_label = "0 (no)"

[[record]]
residue_sequence = "ASTHIYQIMNH [ITK_Y588_V587I]"
qualitative_label = "0 (no)"

[[record]]
residue_sequence = "LYYYSYLLKNH [PTEN_Y180_V175L]"
qualitative_label = "1 (yes)"

[[record]]
residue_sequence = "HLLRIYFDITD [MMP27_Y307_W304L_YF]"
qualitative_label = "1 (yes)"

[[record]]
residue_sequence = "CTTIHYNFMHN [TP53_Y234_C238H_YF]"
qualitative_label = "0 (no)"

[[record]]
residue_sequence = "NLVSEYQQYQD [TUBB3_Y422_D417N]"
qualitative_label = "1 (yes)"

[[record]]
residue_sequence = "SSPQLYLVPFL [TAF4_Y652_P651L]"
qualitative_label = "1 (yes)"

[[record]]
residue_sequence = "SLIDMYSEVLA [OPA1_Y268_D273A]"
qualitative_label = "1 (yes)"

[[record]]
residue_sequence = "FGAHNYHPLPV [OAT_Y55_YF]"
qualitative_label = "1 (yes)"

[[record]]
residue_sequence = "RKELFYKADGE [SERPINC1_Y272]"
qualitative_label = "1 (yes)"

[[record]]
residue_sequence = "ALRASYTPSPA [ESS2_Y418]"
qualitative_label = "0 (no)"

[[record]]
residue_sequence = "ISSLLYELLEE [TRPC6_Y896_R895L]"
qualitative_label = "1 (yes)"

[[record]]
residue_sequence = "CLAQRYLIWEC [SCN5A_Y694_R689C]"
qualitative_label = "1 (yes)"


====

Target: Jak2 (UniProt O60674)
Sequence (O60674 whole entry, looked up): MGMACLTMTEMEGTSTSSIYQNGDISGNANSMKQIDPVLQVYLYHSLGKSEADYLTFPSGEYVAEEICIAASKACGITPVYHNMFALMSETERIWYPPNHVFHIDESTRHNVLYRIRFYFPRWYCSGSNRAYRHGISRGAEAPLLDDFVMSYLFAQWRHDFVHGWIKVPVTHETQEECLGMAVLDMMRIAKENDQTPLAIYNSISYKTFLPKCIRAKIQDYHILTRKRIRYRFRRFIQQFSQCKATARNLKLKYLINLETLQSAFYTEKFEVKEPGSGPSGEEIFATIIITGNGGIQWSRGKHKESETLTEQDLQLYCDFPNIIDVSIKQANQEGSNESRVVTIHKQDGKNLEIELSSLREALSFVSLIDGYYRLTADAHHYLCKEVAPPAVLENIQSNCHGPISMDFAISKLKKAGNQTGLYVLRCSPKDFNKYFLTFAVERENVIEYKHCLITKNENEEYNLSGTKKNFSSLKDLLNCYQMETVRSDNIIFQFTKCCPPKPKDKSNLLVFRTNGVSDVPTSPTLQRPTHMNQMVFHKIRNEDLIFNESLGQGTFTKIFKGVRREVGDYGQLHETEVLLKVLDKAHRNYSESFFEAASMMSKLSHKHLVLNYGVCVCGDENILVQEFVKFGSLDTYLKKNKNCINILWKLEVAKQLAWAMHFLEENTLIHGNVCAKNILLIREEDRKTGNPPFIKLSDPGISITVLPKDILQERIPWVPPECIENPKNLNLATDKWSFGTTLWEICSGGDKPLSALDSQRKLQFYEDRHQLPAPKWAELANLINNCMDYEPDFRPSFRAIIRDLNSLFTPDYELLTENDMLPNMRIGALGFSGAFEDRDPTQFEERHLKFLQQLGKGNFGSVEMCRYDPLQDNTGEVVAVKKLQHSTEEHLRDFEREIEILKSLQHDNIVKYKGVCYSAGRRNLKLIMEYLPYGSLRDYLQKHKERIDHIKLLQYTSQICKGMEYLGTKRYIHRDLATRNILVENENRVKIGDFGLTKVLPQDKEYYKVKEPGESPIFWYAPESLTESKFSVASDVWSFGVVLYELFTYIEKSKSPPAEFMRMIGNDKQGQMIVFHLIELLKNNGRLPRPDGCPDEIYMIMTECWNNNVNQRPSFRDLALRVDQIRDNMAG
Test: phosphorylation enrichment, bacterial display (enrichment ratio); higher = better substrate or ligand; peptides without Tyr show the background
Output schema: class label derived from phosphorylation enrichment. Mapping: bin 1 = under 0.6, bin 2 = from 0.6 up to 1, bin 3 = 1 and over

[[record]]
residue_sequence = "DKNSSYFADWL [TUBB8_Y340]"
assayed_target = "Jak2 (UniProt O60674)"
qualitative_label = "bin 3"

[[record]]
residue_sequence = "DSMQSYDLDYP [UNC13B_Y243]"
assayed_target = "Jak2 (UniProt O60674)"
qualitative_label = "bin 3"

[[record]]
residue_sequence = "IVFTSYFLTIL [TAS2R16_Y239]"
assayed_target = "Jak2 (UniProt O60674)"
qualitative_label = "bin 3"

[[record]]
residue_sequence = "VYLGAYDCFLP [SLC22A5_Y486_R488C]"
assayed_target = "Jak2 (UniProt O60674)"
qualitative_label = "bin 3"

[[record]]
residue_sequence = "NGQAVYAACQT [XDH_Y1092]"
assayed_target = "Jak2 (UniProt O60674)"
qualitative_label = "bin 1"

[[record]]
residue_sequence = "PRAEWYRDDLL [MYOM2_Y317_V321L]"
assayed_target = "Jak2 (UniProt O60674)"
qualitative_label = "bin 2"

[[record]]
residue_sequence = "PLKFLYPNIDR [STAT1_Y668_K673R_YF]"
assayed_target = "Jak2 (UniProt O60674)"
qualitative_label = "bin 3"

[[record]]
residue_sequence = "LYYYSYLLKNH [PTEN_Y180_V175L]"
assayed_target = "Jak2 (UniProt O60674)"
qualitative_label = "bin 3"

[[record]]
residue_sequence = "DHAGTYGLGDR [MAPT_Y18]"
assayed_target = "Jak2 (UniProt O60674)"
qualitative_label = "bin 1"

[[record]]
residue_sequence = "YPSLPYSPVSS [CAMKK2_Y128_C123Y]"
assayed_target = "Jak2 (UniProt O60674)"
qualitative_label = "bin 1"

[[record]]
residue_sequence = "RGSQQYRALTV [TUBB8_Y281]"
assayed_target = "Jak2 (UniProt O60674)"
qualitative_label = "bin 2"

